MEASURED TARGET: hCA I (Homo sapiens, UniProt P00915)
Construct: gene CA1; recombinant, obtained in-house; cytosolic alpha-CA
Sequence (P00915 2-261): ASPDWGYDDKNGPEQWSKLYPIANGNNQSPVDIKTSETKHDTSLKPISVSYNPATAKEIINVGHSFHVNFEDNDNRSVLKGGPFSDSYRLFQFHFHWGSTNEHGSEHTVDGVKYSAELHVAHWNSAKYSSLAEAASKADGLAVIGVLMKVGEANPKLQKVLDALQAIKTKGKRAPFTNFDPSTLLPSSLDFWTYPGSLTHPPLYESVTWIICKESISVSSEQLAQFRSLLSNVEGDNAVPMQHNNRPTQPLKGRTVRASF
EXPERIMENTAL PROTOCOL: stopped-flow CO2 hydration assay, phenol red
Type: biochemical
CONDITION SET: read-out: KI (nM)^a / hCA I (α-CA)
MEASUREMENT LABEL: Ki

# annotated cases, reported Ki shown
{"columns": ["MOLECULE", "MEASURED TARGET", "Ki"],
 "data": [
  ["CCN(C#N)c1ccc(S(N)(=O)=O)cc1 [compound 9, 4-(N-Ethylcyanamido)benzenesulfonamide]", "hCA I (Homo sapiens, UniProt P00915)", "88.6 nM"],
  ["CCCCCCCN(C#N)c1ccc(S(N)(=O)=O)cc1 [compound 12, 4-(N-Heptylcyanamido)benzenesulfonamide]", "hCA I (Homo sapiens, UniProt P00915)", "38.2 nM"],
  ["CCCCCCCCCCCCCCCCCCN(C#N)c1ccc(S(N)(=O)=O)cc1", "hCA I (Homo sapiens, UniProt P00915)", "17.3 nM"]
]}

Field request: Ki | item: N#CN(Cc1ccccc1)c1ccc(S(N)(=O)=O)cc1 [compound 16, 4-(N-Benzylcyanamido)benzenesulfonamide] 67.3 nM

How about CN(C#N)c1ccc(S(N)(=O)=O)cc1 [compound 8, 4-(N-Methylcyanamido)benzenesulfonamide] ? 557 nM

One more molecule: N#CN(c1ccc(S(N)(=O)=O)cc1)C1CCCCC1 50.6 nM

Another: CCCCCCN(C#N)c1ccc(S(N)(=O)=O)cc1 [compound 11, 4-(N-Hexylcyanamido)benzenesulfonamide] 9.3 nM

---

MEASURED TARGET: hCA I (Homo sapiens)
Construct: gene CA1; recombinant, obtained in-house; cytosolic alpha-CA
EXPERIMENTAL PROTOCOL: stopped-flow CO2 hydration assay, phenol red
Assay type: biochemical
CONDITION SET: read-out: KI (nM)^a / hCA I (α-CA)
Consider the following compounds and their measured Ki readings.
All answers are understood in nM, so give the number only.

Solved entries:
{"columns": ["COMPOUND", "MEASURED TARGET", "RECORDED NUMBER"],
 "data": [
  ["N#CN(Cc1ccc(Br)cc1)c1ccc(S(N)(=O)=O)cc1", "hCA I (Homo sapiens)", 389],
  ["C=CCN(C#N)c1ccc(S(N)(=O)=O)cc1 [compound 15, 4-(N-Allylcyanamido)benzenesulfonamide]", "hCA I (Homo sapiens)", 74.7]
]}

Below: the item to evaluate.
I am curious: what Ki value has been reported for CCCCN(C#N)c1ccc(S(N)(=O)=O)cc1 [compound 10, 4-(N-Butylcyanamido)benzenesulfonamide] ? 16.4

---

MEASURED TARGET: hCA XIII (Homo sapiens)
Construct: gene CA13; recombinant, obtained in-house; cytosolic alpha-CA
Sequence (Q8N1Q1 whole entry): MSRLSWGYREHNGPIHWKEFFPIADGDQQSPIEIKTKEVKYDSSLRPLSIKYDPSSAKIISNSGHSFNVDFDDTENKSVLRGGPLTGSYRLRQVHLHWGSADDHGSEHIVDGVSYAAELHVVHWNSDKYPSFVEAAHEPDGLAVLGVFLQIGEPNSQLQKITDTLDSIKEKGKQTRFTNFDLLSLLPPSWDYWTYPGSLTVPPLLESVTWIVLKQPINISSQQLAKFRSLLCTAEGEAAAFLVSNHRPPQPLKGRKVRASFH
EXPERIMENTAL PROTOCOL: stopped-flow CO2 hydration assay, phenol red
Type: biochemical
CONDITION SET: read-out: KI (nM)^a / hCA XIII (α-CA)
MEASUREMENT LABEL: Ki (nM)
Answer in nM, number only, no unit symbol.

Look up Ki for this molecule: CCCCCCCCCCCCCCCCCCN(C#N)c1ccc(S(N)(=O)=O)cc1 [compound 13] 155

Param item: N#CN(Cc1ccc(Br)cc1)c1ccc(S(N)(=O)=O)cc1 [compound 17] 53.1

---

MEASURED TARGET: hCA II (Homo sapiens, UniProt P00918)
Construct: gene CA2; recombinant, obtained in-house; cytosolic alpha-CA
EXPERIMENTAL PROTOCOL: stopped-flow CO2 hydration assay, phenol red
Format: biochemical
CONDITION SET: read-out: KI (nM)^a / hCA II (α-CA)
Quick list: Ki per entry.
Report only the number, with the unit nM understood.

Use the examples below as a reference point.
{"columns": ["COMPOUND", "RESULT UNITS", "Ki"],
 "data": [
  ["N#CN(Cc1ccccc1)c1ccc(S(N)(=O)=O)cc1 [compound 16, 4-(N-Benzylcyanamido)benzenesulfonamide]", "nM", 61.4],
  ["CCCCCCCN(C#N)c1ccc(S(N)(=O)=O)cc1 [compound 12, 4-(N-Heptylcyanamido)benzenesulfonamide]", "nM", 7.1],
  ["CN(C#N)c1ccc(S(N)(=O)=O)cc1 [compound 8, 4-(N-Methylcyanamido)benzenesulfonamide]", "nM", 29.2]
]}

Given CCCCCCN(C#N)c1ccc(S(N)(=O)=O)cc1 [compound 11, 4-(N-Hexylcyanamido)benzenesulfonamide] , state its recorded Ki. 5.3

Param item: CCN(C#N)c1ccc(S(N)(=O)=O)cc1 [compound 9, 4-(N-Ethylcyanamido)benzenesulfonamide] 45.3

---

MEASURED TARGET: StCA1
Construct: recombinant beta-CA, obtained in-house
EXPERIMENTAL PROTOCOL: stopped-flow CO2 hydration assay, phenol red
Format: biochemical, Salmonella enterica subsp. enterica serovar Typhimurium
CONDITION SET: […] TRIS pH […] Na2SO4, […] h preincubation, room temperature; read-out: KI (nM)^a / StCA1 (β-CA)
In this section we review reported Ki values for a set of compounds.
Respond with the bare value in nM.

{"columns": ["COMPOUND", "MEASURED TARGET", "RESULT UNITS", "Ki"],
 "data": [
  ["CCN(C#N)c1ccc(S(N)(=O)=O)cc1 [compound 9, 4-(N-Ethylcyanamido)benzenesulfonamide]", "StCA1", "nM", 61.5],
  ["CCCCCCCCCCCCCCCCCCN(C#N)c1ccc(S(N)(=O)=O)cc1", "StCA1", "nM", 66.1],
  ["CCCCN(C#N)c1ccc(S(N)(=O)=O)cc1 [compound 10, 4-(N-Butylcyanamido)benzenesulfonamide]", "StCA1", "nM", 62.7]
]}

// below: Ki requested for another compound
Recorded Ki for N#CN(Cc1ccc(Br)cc1)c1ccc(S(N)(=O)=O)cc1 , please? 73.1

---

MEASURED TARGET: hCA VII (Homo sapiens, UniProt P43166)
Construct: gene CA7; recombinant, obtained in-house; cytosolic alpha-CA
Sequence (P43166 whole entry): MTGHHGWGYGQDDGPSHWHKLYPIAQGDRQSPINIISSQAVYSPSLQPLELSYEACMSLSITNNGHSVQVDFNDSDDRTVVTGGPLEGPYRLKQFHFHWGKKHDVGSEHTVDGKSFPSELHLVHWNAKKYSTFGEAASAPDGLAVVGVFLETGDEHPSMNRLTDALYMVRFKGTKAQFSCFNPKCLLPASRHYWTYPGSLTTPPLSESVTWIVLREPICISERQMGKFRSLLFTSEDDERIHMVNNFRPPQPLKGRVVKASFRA
EXPERIMENTAL PROTOCOL: stopped-flow CO2 hydration assay, phenol red
Format: biochemical
CONDITION SET: read-out: KI (nM)^a / hCA VII (α-CA)
Below, each entry is listed alongside its reported Ki.
The reply should contain only the number, in nM.

{"columns": ["COMPOUND", "RESULT UNITS", "Ki"],
 "data": [
  ["C=CCN(C#N)c1ccc(S(N)(=O)=O)cc1 [compound 15, 4-(N-Allylcyanamido)benzenesulfonamide]", "nM", 2.3],
  ["N#CN(c1ccc(S(N)(=O)=O)cc1)C1CCCCC1 [compound 14]", "nM", 1.9],
  ["CCCCN(C#N)c1ccc(S(N)(=O)=O)cc1 [compound 10, 4-(N-Butylcyanamido)benzenesulfonamide]", "nM", 1.3],
  ["N#CN(Cc1ccccc1)c1ccc(S(N)(=O)=O)cc1 [compound 16, 4-(N-Benzylcyanamido)benzenesulfonamide]", "nM", 2],
  ["N#CN(Cc1ccc(Br)cc1)c1ccc(S(N)(=O)=O)cc1 [compound 17]", "nM", 2.4]
]}

# Ki lookup, item CCN(C#N)c1ccc(S(N)(=O)=O)cc1 [compound 9, 4-(N-Ethylcyanamido)benzenesulfonamide] 17.9

Would you mind doing CCCCCCN(C#N)c1ccc(S(N)(=O)=O)cc1 [compound 11, 4-(N-Hexylcyanamido)benzenesulfonamide] as well? 1.5

---

MEASURED TARGET: StCA2
Construct: recombinant beta-CA, obtained in-house
EXPERIMENTAL PROTOCOL: stopped-flow CO2 hydration assay, phenol red
Assay type: biochemical, Salmonella enterica subsp. enterica serovar Typhimurium
CONDITION SET: […] TRIS pH […] Na2SO4, […] h preincubation, room temperature; read-out: KI (nM)^a / StCA2 (β-CA)
Cut-off 600 nM on Ki: below means yes, at or above means no.

Sample answers from the record:
{"columns": ["COMPOUND", "CAT"],
 "data": [
  ["CCCCCCN(C#N)c1ccc(S(N)(=O)=O)cc1 [compound 11, 4-(N-Hexylcyanamido)benzenesulfonamide]", "no"],
  ["N#CN(c1ccc(S(N)(=O)=O)cc1)C1CCCCC1 [compound 14]", "yes"],
  ["N#CN(Cc1ccc(Br)cc1)c1ccc(S(N)(=O)=O)cc1 [compound 17]", "no"],
  ["CCCCCCCN(C#N)c1ccc(S(N)(=O)=O)cc1 [compound 12, 4-(N-Heptylcyanamido)benzenesulfonamide]", "no"],
  ["CN(C#N)c1ccc(S(N)(=O)=O)cc1 [compound 8, 4-(N-Methylcyanamido)benzenesulfonamide]", "yes"]
]}

Please state whether Ki is below 600 nM for N#CN(Cc1ccccc1)c1ccc(S(N)(=O)=O)cc1 [compound 16, 4-(N-Benzylcyanamido)benzenesulfonamide] no

Try this compound too: CCCCCCCCCCCCCCCCCCN(C#N)c1ccc(S(N)(=O)=O)cc1 [compound 13] no

And for C=CCN(C#N)c1ccc(S(N)(=O)=O)cc1 [compound 15, 4-(N-Allylcyanamido)benzenesulfonamide] ? no

Now consider CCCCN(C#N)c1ccc(S(N)(=O)=O)cc1 [compound 10, 4-(N-Butylcyanamido)benzenesulfonamide] and answer again. yes

Try this compound too: CCN(C#N)c1ccc(S(N)(=O)=O)cc1 [compound 9, 4-(N-Ethylcyanamido)benzenesulfonamide] yes

This collection of values is drawn from paper PMC9621233.
